Assay: Cytotoxicity against human 12Z cells assessed as reduction in cell viability after 6 days by crystal violet staining based assay
Type: toxicity
parameter: IC50 at 6 days (µM)
Enter your answer as a number in µM; do not include the unit.

q: I have this compound here, CNC(=O)Nc1ccc2c(c1)CC[C@@]21OC(=O)N(CC(=O)N(Cc2ccc(F)cc2)[C@@H](C)C(F)(F)F)C1=O [A-485] , and I need its recorded IC50 at 6 days.
a: 3.32

====

Experiment: Cytotoxicity against human 12Z cells transfected with control shRNA assessed as reduction in cell viability after 6 days by crystal violet staining based assay
Type: toxicity
parameter: IC50 at 6 days (µM)
Enter your answer as a number in µM; do not include the unit.

q: I have this compound here, CNC(=O)Nc1ccc2c(c1)CC[C@@]21OC(=O)N(CC(=O)N(Cc2ccc(F)cc2)[C@@H](C)C(F)(F)F)C1=O , and I need its recorded IC50 at 6 days.
a: 3.61
